Molecular target: Vasoactive intestinal polypeptide receptor 2 (Homo sapiens)
Test: Antagonist activity at recombinant human N-terminal signal peptide/FLAG epitope-tagged VIPR2 expressed in HEK293 cells co-expressing CAMYEL assessed as inhibition of VIP-induced cAMP accumulation at 5 uM preincubated for 5 mins with luciferin, coelenterazine H followed by VIP addition measured after 5 mins by BRET assay relative to control
Assay type: functional, cell-based
measured-parameter: inhibition (%)

A selection of reference data follows.
- O=C(NC[C@@H](O)C[C@@H](Cc1ccccc1)C(=O)N[C@H]1c2ccccc2C[C@H]1O)c1ccccn1: 20.3
- CCN(CC)C(=O)c1ccc(S(=O)(=O)NC[C@@H](O)C[C@@H](Cc2ccccc2)C(=O)N[C@H]2c3ccccc3C[C@H]2O)cc1: 31.8
- CC1CCC(NC(=O)[C@H](Cc2ccccc2)C[C@H](O)CNS(=O)(=O)c2ccc([N+](=O)[O-])cc2)CC1 (some centres not stated): -2.8

P. C=Cc1ccc(C(=O)NC[C@@H](O)C[C@@H](Cc2ccccc2)C(=O)N[C@H]2c3ccccc3C[C@H]2O)cc1
Q. O=C(NCc1ccccc1)[C@H](Cc1ccccc1)C[C@H](O)CNS(=O)(=O)c1ccc([N+](=O)[O-])cc1
R. CCCCNC(=O)[C@H](Cc1ccccc1)C[C@H](O)CNS(=O)(=O)c1ccc([N+](=O)[O-])cc1
S. O=C(N[C@H]1c2ccccc2C[C@H]1O)[C@H](Cc1ccccc1)C[C@H](O)CNS(=O)(=O)c1ccc(C(F)(F)F)cc1
stdin: Arrange these 4 compounds in increasing order of inhibition. Lab note: final answer is the ordered label list.
stdout: Q, R, P, S
(Q: -2.9%, R: 5.3%, P: 23.8%, S: 98.5%)

###

Target: Vasoactive intestinal polypeptide receptor 2 (Homo sapiens) (UniProt P41587)
Sequence (P41587 whole entry, the tested form may be a part): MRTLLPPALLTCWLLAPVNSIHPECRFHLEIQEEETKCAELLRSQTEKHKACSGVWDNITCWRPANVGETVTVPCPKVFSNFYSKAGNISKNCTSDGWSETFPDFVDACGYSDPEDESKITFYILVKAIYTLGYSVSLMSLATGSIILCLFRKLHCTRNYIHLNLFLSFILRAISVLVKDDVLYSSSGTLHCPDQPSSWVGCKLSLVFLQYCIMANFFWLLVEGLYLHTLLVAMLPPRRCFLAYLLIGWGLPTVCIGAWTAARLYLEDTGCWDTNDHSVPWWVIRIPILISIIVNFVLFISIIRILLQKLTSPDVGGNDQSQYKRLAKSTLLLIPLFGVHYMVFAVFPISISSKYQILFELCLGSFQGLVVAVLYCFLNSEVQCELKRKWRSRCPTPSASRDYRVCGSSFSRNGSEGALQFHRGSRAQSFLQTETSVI
Test: Antagonist activity at recombinant human N-terminal signal peptide/FLAG epitope-tagged Rluc8-fused VIPR2 expressed in HEK293 cells assessed as inhibition of VIP-induced human mVenus-beta-arrestin2 binding at 1 uM preincubated for 5 mins with luciferin, coelenterazine H followed by VIP addition measured after 5 mins by BRET assay relative to control
Format: cell-based
measured-parameter: inhibition (%)

The examples below pair each entry with its known result.
• O=C(NC[C@@H](O)C[C@@H](Cc1ccccc1)C(=O)N[C@H]1c2ccccc2C[C@H]1O)C1CC1 = 37
• CNC(=O)[C@H](Cc1ccccc1)C[C@H](O)CNS(=O)(=O)c1ccc([N+](=O)[O-])cc1 = 4
• O=C(NC[C@@H](O)C[C@@H](Cc1ccccc1)C(=O)N[C@H]1c2ccccc2C[C@H]1O)C1CCCCCC1 = 16.4
• NC[C@@H](O)C[C@@H](Cc1ccccc1)C(=O)N[C@H]1c2ccccc2C[C@H]1O = 1.4

a. CC1CCC(NC(=O)[C@H](Cc2ccccc2)C[C@H](O)CNS(=O)(=O)c2ccc([N+](=O)[O-])cc2)CC1 (stereo not given in full)
b. O=C(NC1CCCC1)[C@@H](Cc1ccccc1)C[C@H](O)CNS(=O)(=O)c1ccc([N+](=O)[O-])cc1
stdin: Which of the two gives a bigger number for inhibition: a or b ? Respond using the label that marks the chosen record.
stdout: a
(a: -1.3%, b: -6.1%)

1. COc1ccc(S(=O)(=O)NC[C@@H](O)C[C@@H](Cc2ccccc2)C(=O)N[C@H]2c3ccccc3C[C@H]2O)cc1OC
2. CC(=O)c1ccc(S(=O)(=O)NC[C@@H](O)C[C@@H](Cc2ccccc2)C(=O)N[C@H]2c3ccccc3C[C@H]2O)cc1
stdin: Could you tell me which of 1 and 2 has the lower inhibition reading? Lab note: record the label of whichever item you select.
stdout: 1
(1: 23.2%, 2: 78%)

I. O=C(NCc1ccccc1)[C@H](Cc1ccccc1)C[C@H](O)CNS(=O)(=O)c1ccc([N+](=O)[O-])cc1
II. CC(C)c1cc(C(C)C)c(S(=O)(=O)NC[C@@H](O)C[C@@H](Cc2ccccc2)C(=O)N[C@H]2c3ccccc3C[C@H]2O)c(C(C)C)c1
III. CN(C)c1ccc(S(=O)(=O)NC[C@@H](O)C[C@@H](Cc2ccccc2)C(=O)N[C@H]2c3ccccc3C[C@H]2O)cc1
IV. O=C(Nc1ccc(S(=O)(=O)NC[C@@H](O)C[C@@H](Cc2ccccc2)C(=O)N[C@H]2c3ccccc3C[C@H]2O)cc1)C1CC1
V. O=C(N[C@H]1c2ccccc2C[C@H]1O)[C@H](Cc1ccccc1)C[C@H](O)CNS(=O)(=O)c1ccc(C(=O)N2CCOCC2)cc1
stdin: Parameters: sort_field (inhibition), sort_dir (desc). Please respond by ranking the labels in the order requested.
stdout: II, I, V, IV, III
